Values compiled from the supplement of paper PMC11061612.

Listed here: items and their measured Bliss excess.
- System: huH-1 (Hepatocellular Carcinoma);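 also: after 72 h of two-drug dosing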
- Assay name: Bliss excess, mean over the matrix (fraction); higher = more synergy

// below: answered compounds
COc1cccc2c1C(=O)c1c(O)c3c(c(O)c1C2=O)C[C@@](O)(C(=O)CO)C[C@@H]3O[C@H]1C[C@H](N)[C@H](O)[C@H](C)O1 [Doxorubicin] + Cc1cc2ncnn2cc1Nc1ncc2c(n1)n(C1CCOCC1)c(=O)n2C [AZD7648] (first compound max 1 µM, 7x7, partner max 10 µM) | 0.102
Cc1cc2ncnn2cc1Nc1ncc2c(n1)n(C1CCOCC1)c(=O)n2C [AZD7648] + CCN(CCO)CCCOc1ccc2c(Nc3cc(CC(=O)Nc4cccc(F)c4)[nH]n3)ncnc2c1 [AZD2811] (first compound max 10 µM, 7x7, partner max 1 µM) | 0.0008
COc1cccc(OCCCN)c1-c1cc(Nc2cnc(C#N)cn2)n[nH]1 [Prexasertib] + Cc1cc2ncnn2cc1Nc1ncc2c(n1)n(C1CCOCC1)c(=O)n2C [AZD7648] (first compound max 1 µM, 7x7, partner max 10 µM) | -0.0226

**Q:** Answer with the recorded Bliss excess for the compound listed here: NC1(C(=O)N[C@@H](CCO)c2ccc(Cl)cc2)CCN(c2ncnc3[nH]ccc23)CC1 [Capivasertib] + COc1nnc2ccc(N3CCC(c4ccc(OCCN5CCN(C)C(=O)[C@H]5C)cc4)CC3)nn12 [AZD5153] (first compound max 10 µM, 7x7, partner max 1 µM)
**A:** 0.0064

----------
- System: CGTH-W-1 (Thyroid Gland Carcinoma)
- Assay name: combination Emax (second highest fraction inhibited in the dose matrix, 72 h); higher = more inhibition; extreme values may be limits of the assay
Readout name: combination Emax

CN(CCO)CC[C@H](CSc1ccccc1)Nc1ccc(S(=O)(=O)NC(=O)c2ccc(N3CCC([C@@H](O)c4ccccc4-c4ccc(Cl)cc4)CC3)cc2)cc1S(=O)(=O)C(F)(F)F [AZD4320] + Cn1cnc2c(F)c(Nc3ccc(Br)cc3Cl)c(C(=O)NOCCO)cc21 [Selumetinib] (first compound max 1 µM, 7x7, partner max 3 µM) | 0.342

Turning now to a further compound:
**Q:** Answer with the recorded combination Emax for the compound listed here: Cc1c2c(nn1C)CSCc1cc(n(C)n1)CSc1cc(c3ccccc3c1)OCCCc1c(C(=O)O)n(C)c3c-2c(Cl)ccc13 [AZD5991] + Cn1cnc2c(F)c(Nc3ccc(Br)cc3Cl)c(C(=O)NOCCO)cc21 [Selumetinib] (first compound max 1 µM, 7x7, partner max 3 µM)
**A:** 0.181

----------
Listed here: items and their measured combination Emax.
- Test system: OACp4C (Esophageal Adenocarcinoma)
- Assay name: combination Emax (second highest fraction inhibited in the dose matrix, 72 h); higher = more inhibition; extreme values may be limits of the assay
Hey, just send me the number, nothing else.

Cc1c2c(nn1C)CSCc1cc(n(C)n1)CSc1cc(c3ccccc3c1)OCCCc1c(C(=O)O)n(C)c3c-2c(Cl)ccc13 [AZD5991] + CC1(C)CCC(CN2CCN(c3ccc(C(=O)NS(=O)(=O)c4ccc(NCC5CCOCC5)c([N+](=O)[O-])c4)c(Oc4cnc5[nH]ccc5c4)c3)CC2)=C(c2ccc(Cl)cc2)C1 [Venetoclax] (first compound max 1 µM, 7x7, partner max 1 µM) | 0.74

**Q:** Name the value of combination Emax reported for COc1cccc(OCCCN)c1-c1cc(Nc2cnc(C#N)cn2)n[nH]1 [Prexasertib] + C[C@@H]1COCCN1C2=NC(=NC(=C2)C3(CC3)[S@](=N)(=O)C)C4=C5C=CNC5=NC=C4 [AZD6738] (first compound max 1 µM, 7x7, partner max 10 µM) when tested on OACp4C (Esophageal Adenocarcinoma).
**A:** 0.737

**Q:** Name the value of combination Emax reported for COc1cc2ncnc(Nc3ccc(F)c(Cl)c3)c2cc1OCCCN1CCOCC1 [Gefitinib] + CC(C)n1c(=O)n(C)c2cnc3cc(F)c(-c4ccc(OCCCN5CCCCC5)nc4)cc3c21 [AZD1390] (first compound max 10 µM, 7x7, partner max 0.3 µM) when tested on OACp4C (Esophageal Adenocarcinoma).
**A:** 0.572
